- Experimental System: Calcium release-activated calcium channel protein 1 (Homo sapiens) (UniProt Q96D31)
- Sequence (Q96D31 whole entry, looked up): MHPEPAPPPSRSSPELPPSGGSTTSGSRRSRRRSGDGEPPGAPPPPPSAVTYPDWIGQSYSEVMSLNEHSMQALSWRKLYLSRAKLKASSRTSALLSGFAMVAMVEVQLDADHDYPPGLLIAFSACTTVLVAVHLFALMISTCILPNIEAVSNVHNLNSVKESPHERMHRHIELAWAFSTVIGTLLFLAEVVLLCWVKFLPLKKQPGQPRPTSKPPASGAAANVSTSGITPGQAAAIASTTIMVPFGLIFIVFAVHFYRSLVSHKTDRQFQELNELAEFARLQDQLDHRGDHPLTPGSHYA
- Assay Summary: Antagonist activity at human ORAI1 expressed in HEK293T cells assessed as […]-induced inwardly rectifying current at 90 uM and -120 mV by whole cell patch-clamp method relative to control
- Type: cell-based
- Set-up: scale not given: the % may be the effect or the level left
As shown below, each of these compounds has a reported Activity value.

{"columns": ["Compound", "Experimental System", "Activity (%)"],
 "data": [
  ["C=C(C)[C@@H]1CCC2=CCC[C@@H](C)[C@]2(C)C1", "Calcium release-activated calcium channel protein 1 (Homo sapiens) (UniProt Q96D31)", 5],
  ["C=C(C)[C@@H]1CCC2=CC(=O)C[C@@H](C)[C@]2(C)C1", "Calcium release-activated calcium channel protein 1 (Homo sapiens) (UniProt Q96D31)", 53],
  ["C=C1CC[C@H]2O[C@]2(C)CC[C@@H]2[C@@H]1CC2(C)C", "Calcium release-activated calcium channel protein 1 (Homo sapiens) (UniProt Q96D31)", 44],
  ["C=C1C2CCC(C2)C1(C)C (stereo not given)", "Calcium release-activated calcium channel protein 1 (Homo sapiens) (UniProt Q96D31)", 79],
  ["C=C(C)[C@@H]1CC[C@@]2(C)CCC(=O)C(C)=C2C1", "Calcium release-activated calcium channel protein 1 (Homo sapiens) (UniProt Q96D31)", 50]
]}

====

- Experimental System: Transient receptor potential cation channel subfamily V member 1 (Homo sapiens)
- Assay Summary: Antagonist activity at human TRPV1 expressed in HEK293T cells assessed as capsaicin-induced inward transient currents at 90 uM and -60 mV by whole cell patch-clamp method relative to control
- Format: cell-based
- Design: scale not given: the % may be the effect or the level left
As shown below, each of these compounds has a reported Activity value.

{"columns": ["Compound", "Activity, %"],
 "data": [
  ["C=C(C)[C@@H]1CCC2=CCC[C@@H](C)[C@]2(C)C1", 31],
  ["C=C1C2CCC(C2)C1(C)C (stereo not given)", 115],
  ["C=C1CC[C@H]2O[C@]2(C)CC[C@@H]2[C@@H]1CC2(C)C", 45],
  ["C=C(C)[C@@H]1CCC2=CC(=O)C[C@@H](C)[C@]2(C)C1", 176],
  ["C=C(C)[C@@H]1CC[C@@]2(C)CCC(=O)C(C)=C2C1", 94]
]}
